# System: Pseudomonas aeruginosa
# assay.summary: MIC against clinical isolates
# Format: cell-based
# test.settings: clinical isolate S-3; unit assumed
readout.kind: MIC (µg/mL)
Report the value in µg/mL with no unit label.

INSERT INTO measurements (compound, target_or_system, observed) VALUES
  ('CCCCCN1CCN(C(=O)N[C@@H](C(=O)N[C@@H]2C(=O)N3[C@@H]2SC(C)(C)[C@@H]3C(=O)O)c2ccccc2)C(=O)C1=O (single isomer, unassigned) [compound 45]', 'Pseudomonas aeruginosa', 50),
  ('CN1CCN(C(=O)N[C@@H](C(=O)N[C@@H]2C(=O)N3[C@@H]2SC(C)(C)[C@@H]3C(=O)O)c2ccccc2)C(=O)C1=O (single isomer, unassigned) [compound 37]', 'Pseudomonas aeruginosa', 50),
  ('CC(=O)N1CCN(C(=O)N[C@@H](C(=O)N[C@@H]2C(=O)N3[C@@H]2SC(C)(C)[C@@H]3C(=O)O)c2ccccc2)C(=O)C1 [compound 1]', 'Pseudomonas aeruginosa', 50),
  ('CCCCN1CCN(C(=O)N[C@@H](C(=O)N[C@@H]2C(=O)N3[C@@H]2SC(C)(C)[C@@H]3C(=O)O)c2ccccc2)C(=O)C1 [compound 14]', 'Pseudomonas aeruginosa', 100);

Next compound, please.
In: So what does the record say about MIC for CC(C)N1CCN(C(=O)N[C@@H](C(=O)N[C@@H]2C(=O)N3[C@@H]2SC(C)(C)[C@@H]3C(=O)O)c2ccccc2)C(=O)C1=O (single isomer, unassigned) [compound 40] ?
Out: 25

* * *

# System: Klebsiella pneumoniae
# assay.summary: MIC against clinical isolates
# Format: cell-based
# test.settings: clinical isolate GN 3850; unit assumed
readout.kind: log10 of MIC (log10 of the value in µg/mL)
All values: base-10 log of MIC in µg/mL.

In: So what does the record say about log10 of MIC for CCCN1CCN(C(=O)N[C@@H](C(=O)N[C@@H]2C(=O)N3[C@@H]2SC(C)(C)[C@@H]3C(=O)O)c2ccccc2)C(=O)C1=O (single isomer, unassigned) ?
Out: 0.80

In: So what does the record say about log10 of MIC for `CC(=O)N1CCN(C(=O)N[C@@H](C(=O)N[C@@H]2C(=O)N3[C@@H]2SC(C)(C)[C@@H]3C(=O)O)c2ccccc2)C(=O)C1` ?
Out: 1.40

In: So what does the record say about log10 of MIC for `CCN1CCN(C(=O)N[C@@H](C(=O)N[C@@H]2C(=O)N3[C@@H]2SC(C)(C)[C@@H]3C(=O)O)c2ccccc2)C(=O)C1=O` ?
Out: 1.10

In: So what does the record say about log10 of MIC for `CCCCN1CCN(C(=O)N[C@@H](C(=O)N[C@@H]2C(=O)N3[C@@H]2SC(C)(C)[C@@H]3C(=O)O)c2ccccc2)C(=O)C1` ?
Out: 1.10

In: So what does the record say about log10 of MIC for CN1CCN(C(=O)N[C@@H](C(=O)N[C@@H]2C(=O)N3[C@@H]2SC(C)(C)[C@@H]3C(=O)O)c2ccccc2)C(=O)C1=O (single isomer, unassigned) ?
Out: 1.40

In: So what does the record say about log10 of MIC for `CCCCCCCCN1CCN(C(=O)N[C@@H](C(=O)N[C@@H]2C(=O)N3[C@@H]2SC(C)(C)[C@@H]3C(=O)O)c2ccccc2)CC1=O` ?
Out: 1.40

In: So what does the record say about log10 of MIC for CC1(C)S[C@@H]2[C@H](NC(=O)[C@H](N)c3ccccc3)C(=O)N2[C@H]1C(=O)O [Sodium Ampicillin, SodiumAmpicillin, reference compound] ?
Out: 1.70

In: So what does the record say about log10 of MIC for CCCCCN1CCN(C(=O)N[C@@H](C(=O)N[C@@H]2C(=O)N3[C@@H]2SC(C)(C)[C@@H]3C(=O)O)c2ccccc2)C(=O)C1=O (single isomer, unassigned) ?
Out: 0.50

In: So what does the record say about log10 of MIC for CC(C)N1CCN(C(=O)N[C@@H](C(=O)N[C@@H]2C(=O)N3[C@@H]2SC(C)(C)[C@@H]3C(=O)O)c2ccccc2)C(=O)C1=O (single isomer, unassigned) ?
Out: 1.10

In: So what does the record say about log10 of MIC for `CCN1CCN(C(=O)N[C@@H](C(=O)N[C@@H]2C(=O)N3[C@@H]2SC(C)(C)[C@@H]3C(=O)O)c2ccccc2)CC1=O` ?
Out: 2.00

In: So what does the record say about log10 of MIC for CCCCN1CCN(C(=O)N[C@@H](C(=O)N[C@@H]2C(=O)N3[C@@H]2SC(C)(C)[C@@H]3C(=O)O)c2ccccc2)C(=O)C1=O (single isomer, unassigned) ?
Out: 0.50

* * *

# Tested on: Pseudomonas aeruginosa
# assay.summary: MIC against clinical isolates
# Format: cell-based
# test.settings: clinical isolate S-3; unit assumed
Known MIC of a selection of molecules
Report the value in µg/mL with no unit label.

INSERT INTO results (molecule, readout_kind, observed) VALUES
  ('CCN1CCN(C(=O)N[C@@H](C(=O)N[C@@H]2C(=O)N3[C@@H]2SC(C)(C)[C@@H]3C(=O)O)c2ccccc2)CC1=O [compound 19]', 'MIC', 50),
  ('CCCCN1CCN(C(=O)N[C@@H](C(=O)N[C@@H]2C(=O)N3[C@@H]2SC(C)(C)[C@@H]3C(=O)O)c2ccccc2)C(=O)C1=O (single isomer, unassigned) [compound 39]', 'MIC', 25),
  ('CC(=O)OCC1=C(C(=O)O)N2C(=O)C(NC(=O)C(NC(=O)N3CCN(C)C(=O)C3=O)c3ccccc3)C2SC1 (single isomer, unassigned) [compound 60]', 'MIC', 100);

In: So what does the record say about MIC for Cc1nnc(SCC2=C(C(=O)O)N3C(=O)C(NC(=O)C(NC(=O)N4CCN(C)C(=O)C4=O)c4ccccc4)C3SC2)s1 (single isomer, unassigned) [compound 62] ?
Out: 200

* * *

# System: Pseudomonas aeruginosa
# assay.summary: MIC against clinical isolates
# Format: cell-based
# test.settings: clinical isolate GN 2565; unit assumed
readout.kind: MIC (µg/mL)
Report the value in µg/mL with no unit label.

INSERT INTO measurements (compound, result_units, observed) VALUES
  ('CC(=O)N1CCN(C(=O)N[C@@H](C(=O)N[C@@H]2C(=O)N3[C@@H]2SC(C)(C)[C@@H]3C(=O)O)c2ccccc2)C(=O)C1', 'µg/mL', 50);

In: So what does the record say about MIC for CCN1CCN(C(=O)NC(C(=O)NC2C(=O)N3C(C(=O)O)=C(COC(C)=O)CSC23)c2ccccc2)C(=O)C1=O (stereo not drawn) ?
Out: 50

In: So what does the record say about MIC for `CCN1CCN(C(=O)N[C@@H](C(=O)N[C@@H]2C(=O)N3[C@@H]2SC(C)(C)[C@@H]3C(=O)O)c2ccccc2)CC1=O` ?
Out: 50

* * *

# Test system: Pseudomonas aeruginosa
# assay.summary: MIC against clinical isolates
# Format: cell-based
# test.settings: clinical isolate S-2; unit assumed
Known MIC of a selection of molecules
Report the value in µg/mL with no unit label.

In: So what does the record say about MIC for `CC(=O)N1CCN(C(=O)N[C@@H](C(=O)N[C@@H]2C(=O)N3[C@@H]2SC(C)(C)[C@@H]3C(=O)O)c2ccccc2)C(=O)C1` ?
Out: 100

In: So what does the record say about MIC for CC(=O)OCC1=C(C(=O)O)N2C(=O)C(NC(=O)C(NC(=O)N3CCN(C)C(=O)C3=O)c3ccccc3)C2SC1 (single isomer, unassigned) ?
Out: 100

* * *

# Tested on: Escherichia coli
# assay.summary: MIC against clinical isolates
# Assay type: cell-based
# test.settings: clinical isolate K-4; unit assumed
readout.kind: log10 MIC (log10 of the value in µg/mL)
All values: base-10 log of MIC in µg/mL.

Some solved entries appear below for comparison.
INSERT INTO measurements (compound, observed) VALUES
  ('CC(C)N1CCN(C(=O)N[C@@H](C(=O)N[C@@H]2C(=O)N3[C@@H]2SC(C)(C)[C@@H]3C(=O)O)c2ccccc2)C(=O)C1=O (single isomer, unassigned) [compound 40]', -0.10),
  ('Cc1nnc(SCC2=C(C(=O)O)N3C(=O)C(NC(=O)C(NC(=O)N4CCN(C)C(=O)C4=O)c4ccccc4)C3SC2)s1 (single isomer, unassigned) [compound 62]', 1.10),
  ('CCCCCN1CCN(C(=O)N[C@@H](C(=O)N[C@@H]2C(=O)N3[C@@H]2SC(C)(C)[C@@H]3C(=O)O)c2ccccc2)C(=O)C1=O (single isomer, unassigned) [compound 45]', -0.10),
  ('Cc1nnc(SCC2=C(C(=O)O)N3C(=O)[C@@H](NC(=O)Cn4cnnn4)[C@H]3SC2)s1 [Sodium Cephazolin, SodiumCephazolin, reference compound]', 0.50),
  ('CCCCCCCCN1CCN(C(=O)N[C@@H](C(=O)N[C@@H]2C(=O)N3[C@@H]2SC(C)(C)[C@@H]3C(=O)O)c2ccccc2)CC1=O [compound 30]', 1.10),
  ('CCCCCCCCN1CCN(C(=O)N[C@@H](C(=O)N[C@@H]2C(=O)N3[C@@H]2SC(C)(C)[C@@H]3C(=O)O)c2ccccc2)C(=O)C1=O (single isomer, unassigned) [compound 47]', -0.10),
  ('CN1CCN(C(=O)NC(C(=O)NC2C(=O)N3C(C(=O)O)=C(CSc4nnnn4C)CSC23)c2ccccc2)C(=O)C1=O (single isomer, unassigned) [compound 63]', 0.80),
  ('CC(=O)OCC1=C(C(=O)O)N2C(=O)[C@@H](NC(=O)[C@H](N)c3ccccc3)[C@H]2SC1 [Sodium Cephaloglycin, SodiumCephaloglycin, reference compound]', 1.10);

In: API: value(readout=log10 MIC, system=Escherichia coli) for record CC(=O)OCC1=C(C(=O)O)N2C(=O)[C@@H](NC(=O)Cc3cccs3)[C@H]2SC1 [Sodium Cephalothin, SodiumCephalothin, reference compound]
Out: 1.40

In: API: value(readout=log10 MIC, system=Escherichia coli) for record CCCCN1CCN(C(=O)N[C@@H](C(=O)N[C@@H]2C(=O)N3[C@@H]2SC(C)(C)[C@@H]3C(=O)O)c2ccccc2)C(=O)C1=O (single isomer, unassigned) [compound 39]
Out: -0.10

In: API: value(readout=log10 MIC, system=Escherichia coli) for record CC(=O)OCC1=C(C(=O)O)N2C(=O)C(NC(=O)C(NC(=O)N3CCN(C)C(=O)C3=O)c3ccccc3)C2SC1 (single isomer, unassigned) [compound 60]
Out: 1.40

In: API: value(readout=log10 MIC, system=Escherichia coli) for record CCN1CCN(C(=O)NC(C(=O)NC2C(=O)N3C(C(=O)O)=C(COC(C)=O)CSC23)c2ccccc2)C(=O)C1=O (stereo not drawn) [compound 61]
Out: 0.80

In: API: value(readout=log10 MIC, system=Escherichia coli) for record O=C(Cc1cccs1)N[C@@H]1C(=O)N2C(C(=O)[O-])=C(C[n+]3ccccc3)CS[C@H]12 [Cephalorizine, reference compound]
Out: 0.80

In: API: value(readout=log10 MIC, system=Escherichia coli) for record CCCN1CCN(C(=O)N[C@@H](C(=O)N[C@@H]2C(=O)N3[C@@H]2SC(C)(C)[C@@H]3C(=O)O)c2ccccc2)C(=O)C1=O (single isomer, unassigned) [compound 38]
Out: -0.10
